Catalogue of pIC50 values
# systemUnderTest: human urokinase (Homo sapiens, UniProt P00749)
# test: biochemical
# conditionLabel: Table 2; S-2444 substrate, pH 8.8, 37° C.; read-out: Urokinase S-2444 (I50)
pIC50: −log10 of the molar value. Counter-ions that a name gives are not always drawn.
observedProperty: pIC50

CC1CCC(NC(=O)C(Cc2ccc(OCc3cccc(Cl)c3)cc2)NC(=O)C2CCC(CN)CC2)CC1C (stereo not shown) [compound 102] | 3.49
CC(=O)c1ccc(NC(=O)C(Cc2ccc(Oc3cc(Cl)ccc3[N+](=O)[O-])cc2)NC(=O)C2CCC(CN)CC2)cc1 (stereo not shown) [compound 123] | 4.59
NC[C@H]1CC[C@H](C(=O)N[C@@H](Cc2ccc(OCc3ccccc3)cc2)C(=O)Nc2cccc(Cl)c2)CC1 [compound 36] | 4.00
CC(=O)c1ccc(NC(=O)[C@H](Cc2ccc(OC(=O)OCc3ccccc3)cc2)NC(=O)[C@H]2CC[C@H](CN)CC2)cc1 [compound 146] | 4.35
NC[C@H]1CC[C@H](C(=O)N[C@@H](Cc2ccc(OCc3ccccc3)cc2)C(=O)Nc2cccc([N+](=O)[O-])c2)CC1 [compound 44] | 4.22
CC(=O)c1ccc(NC(=O)[C@H](Cc2ccc(OC(=O)OCc3ccccc3Cl)cc2)NC(=O)[C@H]2CC[C@H](CN)CC2)cc1 [compound 145] | 4.51
NC[C@H]1CC[C@H](C(=O)N[C@@H](Cc2ccc(Oc3cc(Cl)ccc3[N+](=O)[O-])cc2)C(=O)Nc2ccncc2)CC1 [Compound No. 137, dihydrochloride] | 4.43
